Assay: Selectivity index, ratio of GI50 for human HCT116 cells to MIC90 for active stage of Mycobacterium bovis BCG ATCC 35743
Format: toxicity, cell-based, HCT-116
Conditions: read-out: Selectivity Index
Measured selectivity ratio values are reported for all entries that follow.
The response must contain the number and no unit.

Would you please look over these solved cases?
{"columns": ["SMILES STR", "selectivity ratio"],
 "data": [
  ["CCCCCCc1cc2c(=O)n(CCN=[N+]=[N-])cnc2s1", 4],
  ["CCCCCCCc1cc2c(=O)n(CCN=[N+]=[N-])cnc2s1", 77],
  ["CCCCCCCc1cc2c(=O)n(CCCBr)cnc2s1", 16],
  ["CO[C@H]1/C=C/O[C@@]2(C)Oc3c(C)c(O)c4c(O)c(c(/C=N/N5CCN(C)CC5)c(O)c4c3C2=O)NC(=O)/C(C)=C\\C=C\\[C@H](C)[C@H](O)[C@@H](C)[C@@H](O)[C@@H](C)[C@H](OC(C)=O)[C@@H]1C", 222]
]}

-- ask Which selectivity ratio is reported for this molecule? CCCCCn1cnc2sc(CC)cc2c1=O
-- reply 10

-- ask Tell me the measured selectivity ratio of CCCCCCCCCCc1cc2c(=O)n(CCBr)cnc2s1 , please.
-- reply 44

-- ask Can you share its selectivity ratio? I mean this molecule: C=CCCCCCCCc1cc2c(=O)n(CCBr)cnc2s1
-- reply 18

-- ask State the recorded selectivity ratio for this entry: CCCCCc1cc2c(=O)n(CCC)cnc2s1
-- reply 12

====

selectivity ratio by entry:
Assay: Selectivity index, ratio of GI50 for human A549 cells to MIC90 for active stage of Mycobacterium bovis BCG ATCC 35743
Format: toxicity, cell-based
Conditions: read-out: Selectivity Index
Number only, no unit.

{"columns": ["SMILES STR", "ASSAY READOUT", "MEASURED RESULT"],
 "data": [
  ["CCCCCCCCCCc1cc2c(=O)n(CCBr)cnc2s1", "selectivity ratio", 15]
]}

-- ask State the recorded selectivity ratio for this entry: C=CCCCCCCCc1cc2c(=O)n(CCBr)cnc2s1
-- reply 19

-- ask # input compound: CCCCCc1cc2c(=O)n(CCC)cnc2s1 ; wanted: its selectivity ratio
-- reply 3

-- ask Could you share which selectivity ratio value was measured for CCCCCCc1cc2c(=O)n(CCN=[N+]=[N-])cnc2s1 ?
-- reply 4

-- ask Sample CCCCCCCc1cc2c(=O)n(CCCBr)cnc2s1 — what was its selectivity ratio?
-- reply 5

====

Experiment: Selectivity index, ratio of GI50 for human A549 cells to MIC90 for active stage of Mycobacterium tuberculosis H37Ra
Format: toxicity, cell-based
Details: read-out: Selectivity Index
ASSAY READOUT: selectivity ratio
# answer = number (no unit)

Worked cases, answers included:
{"columns": ["SMILES STR", "selectivity ratio"],
 "data": [
  ["CCCCCCc1cc2c(=O)n(CC3CC3)cnc2s1", 2],
  ["CO[C@H]1/C=C/O[C@@]2(C)Oc3c(C)c(O)c4c(O)c(c(/C=N/N5CCN(C)CC5)c(O)c4c3C2=O)NC(=O)/C(C)=C\\C=C\\[C@H](C)[C@H](O)[C@@H](C)[C@@H](O)[C@@H](C)[C@H](OC(C)=O)[C@@H]1C", 196],
  ["CCCCCCCCCCc1cc2c(=O)n(CCBr)cnc2s1", 1]
]}

Now consider a different compound.
-- ask I am curious: what selectivity ratio value has been reported for CCCCCc1cc2c(=O)n(CC3CC3)cnc2s1 ?
-- reply 3

These data points were gathered from ChEMBL document CHEMBL3774361.
